Test system: TK-10
protocol_text: NCI tumour cell line growth inhibition, 48 h
The source made the active and inactive calls. Cut-off read from the data, not from the text of the source: active = GI50 up to about 1.1 µM and inactive = higher.
metric_name: GI50

{"compound": "O=c1[nH]c(=O)n(COCCO)c2ccc(Br)cc12", "metric_name": "GI50", "result_value": "> 100 µM (inactive)"}
{"compound": "CCOC(=O)CCC(NC(=O)c1ccc(CNc2nc3cc(N)cc(N)c3nc2-c2ccccc2)cc1)C(=O)OCC (stereo not drawn)", "metric_name": "GI50", "result_value": "> 100 µM (inactive)"}
{"compound": "CCOC(=O)c1ccc(NC(=O)O/N=C(/Cl)CCl)cc1", "metric_name": "GI50", "result_value": "28.4 µM (inactive)"}
{"compound": "Nc1nc(N)c(N=O)c(Nc2ccc(Br)cc2)n1", "metric_name": "GI50", "result_value": "29.1 µM (inactive)"}
{"compound": "Cc1cn(C2CC(n3cc(Cn4cc(F)c(=O)[nH]c4=O)nn3)C(CO)O2)c(=O)[nH]c1=O (stereo not drawn)", "metric_name": "GI50", "result_value": "> 100 µM (inactive)"}
{"compound": "CCC(=O)N/S(=N/S(=O)(=O)c1ccccc1)C(Cl)(Cl)Cl (stereo not drawn)", "metric_name": "GI50", "result_value": "> 100 µM (inactive)"}

[in] Requested read-out: GI50. Entry: CC12CCCCC1C(=O)C2(Cl)Cl (stereo not drawn)
[out] 3.85 µM (inactive)

---

Tested on: NCI-H226
protocol_text: NCI tumour cell line growth inhibition, 48 h
The source made the active and inactive calls. No stated cut-off is given here; in the data, active = GI50 up to about 1.1 µM and inactive = higher.
Overview of reported GI50 across a group of compounds:

{"compound": "CC(N/N=C(\\S)N1CCN(c2ccccn2)CC1)c1cccc[n+]1[O-] (stereo unspecified)", "GI50": "34.9 µM (inactive)"}
{"compound": "O=C1OC2C=CCC1C2 (stereo unspecified)", "GI50": "> 100 µM (inactive)"}
{"compound": "Cc1nc2c(=O)n3c4c(cccc4c2o1)CCC3", "GI50": "> 100 µM (inactive)"}
{"compound": "Nc1ccc(-c2nc3ccc(F)cc3s2)cc1Cl", "GI50": "14.1 µM (inactive)"}
{"compound": "Cc1cccc2c(O)cc(=O)oc12", "GI50": "> 100 µM (inactive)"}
{"compound": "COc1cc(Cc2cc3c(c(C(=O)O)c2Br)OCO3)cc(OC)c1OC", "GI50": "> 100 µM (inactive)"}
{"compound": "CC(=C(C(=O)O)C(=O)O)c1cc(-c2cccs2)cc(-c2ccc(Cl)cc2)c1O", "GI50": "21.2 µM (inactive)"}
{"compound": "COc1ccc(OC)c2c(=O)cc(-c3ccccc3)[nH]c12", "GI50": "> 100 µM (inactive)"}

[in] Quick check: GI50 on NCI-H226, item c1ccc(C2CC(NC3CCCCC3)=Nc3ccccc3N2)cc1 (stereo unspecified) ?
[out] > 100 µM (inactive)

[in] Which measured GI50 belongs to COc1ccc(-n2c(=O)n(-c3ccccc3)c(=O)n2-c2ccc(OC)cc2)cc1 , tested on NCI-H226?
[out] > 100 µM (inactive)

---

Tested on: OVCAR-8
protocol_text: NCI tumour cell line growth inhibition, 48 h
Activity calls are given as the source filed them. Rule as the data show it: active = GI50 up to about 1.1 µM and inactive = higher.
Give your call using only these classes: TRUE for active, FALSE for inactive

[in] How did this test come out for COc1ccc(NS(=O)(=O)c2ccc(/N=C3\C=C(Nc4ccc(S(=O)(=O)Nc5ccc(OC)nn5)cc4)C(=O)c4ccccc43)cc2)nn1 ?
[out] FALSE

[in] Check the results log: what was the call for Nc1cc2c(nc3c4ccccc4c(N)cc3[n+]2-c2cccc3ccccc23)c2ccccc12.Nc1cc2c(nc3c4ccccc4ccc3[n+]2-c2cccc3ccccc23)c2ccccc12 ?
[out] TRUE

[in] # lookup: test call for O=c1oc2ccccc2cc1-c1csc(Nc2cc(Cl)cc(Cl)c2)n1
[out] FALSE

[in] # outcome recorded in this test, key = CN(C)Cc1cc(C(C)(C)C)ccc1-c1ccc(C(C)(C)C)cc1CN(C)C
[out] FALSE

[in] Hi, do you know how CC1[C@@H]2CC=C3C4CCC5Cc6nc7c(nc6C[C@@]5(C)C4CC(=O)[C@]32CO[C@@]1(O)C(O)CC(C)(C)O)CC1CCC2C3=C[C@H]4O[C@@]5(O[C@@](C)(CO)C[C@@H]5O)C(C)[C@@]4(O)[C@]3(C)[C@@H](O)CC2[C@]1(C)C7 (some centres undefined) came out in this test?
[out] TRUE

[in] State the result this test recorded for O=C(Cn1c(-c2ccccc2)cc2ccccc21)N1CCCC1 .
[out] FALSE

[in] Test call, this compound: O=C1CCCCC/C1=C\c1cccc(F)c1
[out] FALSE

[in] What is the recorded call for this compound in the test? COC1(OC)C2(Cl)CCC1(Cl)C(OC(C)=O)C2 (centres undefined)
[out] FALSE

[in] Fill in: this test's call for Oc1cccc2cc(Cl)cnc12 is ___
[out] FALSE

---

Entries and their GI50
Test system: ACHN
protocol_text: NCI tumour cell line growth inhibition, 48 h
The source made the active and inactive calls. Rule as the data show it: active = GI50 up to about 1.1 µM and inactive = higher.

{"molecule": "Cc1ccc(C)c(N2C(=O)C(=O)C(c3nc4ccccc4o3)/C(=N/N)C2=O)c1 (configuration not stated)", "metric_name": "GI50", "result_value": "> 100 µM (inactive)"}

[in] Which GI50 value is on record for Fc1ccc(Oc2nc3ccc(C(F)(F)F)cc3nc2-c2ccccc2)cc1 ?
[out] 44.8 µM (inactive)

[in] Name the recorded GI50 for O=C(Cn1c(C(=O)/C=C/c2ccco2)nc2ccccc21)c1ccc(Cl)cc1 .
[out] 26.2 µM (inactive)

[in] I have this molecule here, COc1cc(/C=C\c2ccc(OC(C)=O)cc2)cc(OC)c1OC , and I need its recorded GI50.
[out] 6.46 µM (inactive)

---

Test system: SNB-19
protocol_text: NCI tumour cell line growth inhibition, 48 h
Active and inactive are the calls of the source. Cut-off read from the data, not from the text of the source: active = GI50 up to about 1.1 µM and inactive = higher.
Just give me one of these, please: Y for active, N for inactive

{"compound": "N#C[C@H](C(=O)c1ccccc1F)c1nc2ccccc2[nH]1", "discrete_label": "N"}

[in] Recorded test call requested for CCOC(=O)C(Oc1ccc(OC)c2c1C(=O)CCC2)c1ccccc1 (configuration not stated)
[out] N

[in] In this assay, the call recorded for COC1OC(C)C(OC(=O)C(C)(C)C)C(C)(O)C1O (configuration not stated) was what?
[out] N

[in] Kindly provide the recorded test outcome for the following compound: CCCCc1ccc(Nc2nc(Cl)c3c(ncn3COCCOC(C)=O)n2)cc1
[out] N

[in] Per the assay record, what outcome was assigned to CO[C@H]1C=C[C@@]23c4cc5c(cc4CO[C@]2(O)CN(C)[C@H]3C1)OCO5 ?
[out] N

[in] Record lookup: outcome of this test for CC(C)(C)C(=O)Cc1cc2c(cc1C(=O)O)S(=O)(=O)NC(C(C)(C)C)=C2 ?
[out] N

---

Test system: SNB-19
protocol_text: NCI tumour cell line growth inhibition, 48 h
Activity calls are given as the source filed them. Cut-off read from the data, not from the text of the source: active = GI50 up to about 1.1 µM and inactive = higher. Residues, ends and D or L forms follow the SMILES beside them.
Recorded GI50 by entry

Take a look at these entries with their results.
{"compound": "CC(C(=O)n1c2ccccc2c2ccccc21)N(c1ccccc1)c1ccccc1 (centres undefined)", "test_system": "SNB-19", "metric_name": "GI50", "result_value": "45.1 µM (inactive)"}
{"compound": "C=CC(=O)NC(O)(C(=O)OCC)C(F)(F)F (centres undefined)", "test_system": "SNB-19", "metric_name": "GI50", "result_value": "> 100 µM (inactive)"}
{"compound": "COC(=O)C1C2CC3C1C3C2C(=O)OC (centres undefined)", "test_system": "SNB-19", "metric_name": "GI50", "result_value": "> 100 µM (inactive)"}
{"compound": "CCC(C)C(NC(=O)C1CCCN1)C(=O)NC(C(=O)NCC(=O)NC(CC(N)=O)C(=O)NC(CC(C)C)C(=O)NC(CC(C)C)C(=O)NC(CCCCN)C(N)=O)C(C)C (centres undefined) (H-PIVGNLLK-NH2; configuration not given here)", "test_system": "SNB-19", "metric_name": "GI50", "result_value": "> 75 µM (inactive)"}

[in] Need GI50, item CC(SC(=S)N1CCOCC1)C(=O)Nc1nnc(-c2ccc(Cl)cc2)o1 (centres undefined)
[out] 40 µM (inactive)

[in] Fill blank: measured GI50 of the compound O=c1ncccn1[C@@H]1O[C@H](CO)[C@H](O)C1O (some centres undefined) is ____.
[out] > 100 µM (inactive)

[in] Entry under review: c1ccc2c(c1)-c1nc3ccccc3cc1C2N1CCOCC1 (centres undefined) . Reported GI50?
[out] > 100 µM (inactive)

[in] # GI50 lookup, item COC(=O)C(CCCC1(c2ccccc2)OCCO1)C(C)=O (centres undefined)
[out] > 100 µM (inactive)

[in] GET /values?readout=GI50&item= CC1=CC2=C(OCO1)C(=O)c1ccccc1C2=O
[out] 9.59 µM (inactive)

[in] Query (compound): CN(C)c1ccc(/C=C(\C#N)c2nc(-c3cc4ccccc4oc3=O)cs2)cc1 ; field requested: GI50
[out] 13.2 µM (inactive)

[in] What does the record list as GI50 for COC(=O)c1cc(C)ccc1C1CN=NC12Cc1c(C)cc(C)cc1C2=O (centres undefined) ?
[out] 31 µM (inactive)
